Test system: HIV in the HTLV-1 transformed cell line MT-4
Assay: organism not typed
Format: cell-based
Conditions: MT4, 96 h, MT-4 cells; luciferase/cell titer glo readout after 96 hours; 10 point dose response
Listing: IC50 of selected compounds
Give the value, in units of nM, as a plain number.

Assign IC50 to the following record: Cc1ccc(-c2c(C)c3c(c(C)c2[C@H](OC(C)(C)C)C(=O)O)CN(C(=O)c2ccc(F)c(Cl)c2)C3)cc1 4

Please give the documented IC50 of Cc1c(-c2c(C)c3c(c(C)c2[C@H](OC(C)(C)C)C(=O)O)CN(C(=O)c2cccc4sccc24)C3)cc(F)c2c1CCCO2 (atropisomer, axis not shown; (M)) 5

Please give measured IC50 of the following entry: Cc1ccc(-c2c(C)c3c(c(C)c2[C@H](OC(C)(C)C)C(=O)O)CN(C(=O)c2ccc(C)c(F)c2)C3)cc1 6

Look up and state reported IC50 for Cc1c2c(c(C)c([C@H](OC(C)(C)C)C(=O)O)c1-c1ccc(Cl)cc1)CN(C(=O)c1cccc3c1OCO3)C2 4

Further cases:
# return recorded IC50 for entry COc1ccc(F)cc1C(=O)N1Cc2c(C)c(-c3cc(F)c4c(c3C)CCCO4)c([C@H](OC(C)(C)C)C(=O)O)c(C)c2C1 (atropisomer, axis not shown; (M)) 4

Look up and report measured IC50 for this entry: Cc1ccc(-c2c(C)c3c(c(C)c2[C@H](OC(C)(C)C)C(=O)O)CN(C2CCCC(c4ccccc4)C2)C3)cc1 (stereo partly shown) 203

Fill in IC50 for record Cc1ccc(-c2c(C)c3c(c(C)c2[C@H](OC(C)(C)C)C(=O)O)CN(C(=O)C2CCC(F)(F)C2)C3)cc1 (stereo partly shown) 10

Give a short answer stating reported IC50 for Cc1ccc(-c2c(C)c3c(c(C)c2[C@H](OC(C)(C)C)C(=O)O)CN(C(=O)N2CCCC(F)(F)C2)C3)cc1 . 6

Provide only the value of recorded IC50 for Cc1ccc(-c2c(C)c3c(c(C)c2[C@H](OC(C)(C)C)C(=O)O)CN(C(=O)C2CCCC2)C3)cc1 29

Quickly give me recorded IC50 for Cc1ccc(-c2c(C)c3c(c(C)c2[C@H](OC(C)(C)C)C(=O)O)CN(C2CCC[C@@H](C)C2)C3)cc1 (stereo partly shown) 723

Return reported IC50. Input compound: Cc1ccc(-c2c(C)c3c(c(C)c2[C@H](OC(C)(C)C)C(=O)O)CN(C(=O)N[C@@H](C)C2CCCCC2)C3)cc1 45

Identify measured IC50 corresponding to Cc1ccc(-c2c(C)c3c(c(C)c2[C@H](OC(C)(C)C)C(=O)O)CN(Cc2cccnc2)C3)cc1 50

Look up and state reported IC50 for Cc1c(-c2c(C)c3c(c(C)c2[C@H](OC(C)(C)C)C(=O)O)CN(c2nc4ccccc4o2)C3)cc(F)c2c1CCCO2 (atropisomer, axis not shown; (M)) 124

====

System: HIV in the HTLV-1 transformed cell line MT-4
Assay: organism not typed
Assay type: cell-based
Settings: MT4, 96 h, MT-4 cells; luciferase/cell titer glo readout after 96 hours; 10 point dose response
pIC50: −log10 of the molar value.
Please use criterion met whenever pIC50 is not below 8, and criterion not met whenever it is.

Hi team, for Cc1ccc(C(=O)N2Cc3c(C)c(-c4cc(F)c5c(c4C)CCCO5)c([C@H](OC(C)(C)C)C(=O)O)c(C)c3C2)c(C)c1 (atropisomer, axis not shown; (M)) [Example 189] , is the recorded pIC50 at or above 8? criterion met

# bool: pIC50 of Cc1ccc(-c2c(C)c3c(c(C)c2[C@H](OC(C)(C)C)C(=O)O)CN(C(=O)N(C)C)C3)cc1 [Example 59] >= 8 criterion not met

hey, is pIC50 for this one >= 8? Cc1c(-c2c(C)c3c(c(C)c2[C@H](OC(C)(C)C)C(=O)O)CN(C(=O)N2CCC(C)(C)C2)C3)cc(F)c2c1CCCO2 (atropisomer, axis not shown; (M)) [Example 214] criterion met

Further cases:
Decide: pIC50 of COc1cc(C(=O)N2Cc3c(C)c(-c4cc(F)c5c(c4C)CCCO5)c([C@H](OC(C)(C)C)C(=O)O)c(C)c3C2)ccc1C (atropisomer, axis not shown; (M)) [Example 156] >= 8? criterion met

Would you say Cc1ccc(-c2c(C)c3c(c(C)c2[C@H](OC(C)(C)C)C(=O)O)CN(Cc2cccc(C(=O)N4CCCCC4)c2)C3)cc1 [Example 44] shows pIC50 at minimum 8? criterion not met
